Target: CB2 receptor (Homo sapiens, UniProt P34972)
Sequence (P34972 whole entry): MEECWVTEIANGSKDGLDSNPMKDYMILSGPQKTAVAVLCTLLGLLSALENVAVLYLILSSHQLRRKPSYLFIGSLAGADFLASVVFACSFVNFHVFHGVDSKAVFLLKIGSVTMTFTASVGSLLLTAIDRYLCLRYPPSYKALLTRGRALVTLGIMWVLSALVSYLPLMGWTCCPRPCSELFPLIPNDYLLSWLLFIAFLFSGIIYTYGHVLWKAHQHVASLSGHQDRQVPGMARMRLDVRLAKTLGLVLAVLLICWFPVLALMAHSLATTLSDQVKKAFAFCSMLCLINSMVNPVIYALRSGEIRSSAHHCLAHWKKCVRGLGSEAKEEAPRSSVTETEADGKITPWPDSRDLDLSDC
Experiment: cAMP formation inhibition experiment through a cannabinoid receptor (forskolin stimulation), CB2
Assay type: cell-based
Design: expressed in transfected cells; host or cells: CHO cells
Checkbox rule: IC50 lower than 0.01 µM = satisfied; IC50 not lower than 0.01 µM = not satisfied.

Q: Consider `CCc1c(C)cc(C(=O)Nc2nc(CC(=O)O)cs2)c(=O)n1Cc1ccc(F)cc1` . Does its IC50 lie strictly below 0.01 µM?
Ans: not satisfied

Q: Identify whether the compound `CC(C)C[C@@H](CC(=O)O)NC(=O)c1cc2c(n(CC3CCCCC3)c1=O)CCCCCC2` records IC50 below 0.01 µM.
Ans: satisfied

----------
Molecular target: CB1 receptor (Homo sapiens, UniProt P21554)
Sequence (P21554 whole entry): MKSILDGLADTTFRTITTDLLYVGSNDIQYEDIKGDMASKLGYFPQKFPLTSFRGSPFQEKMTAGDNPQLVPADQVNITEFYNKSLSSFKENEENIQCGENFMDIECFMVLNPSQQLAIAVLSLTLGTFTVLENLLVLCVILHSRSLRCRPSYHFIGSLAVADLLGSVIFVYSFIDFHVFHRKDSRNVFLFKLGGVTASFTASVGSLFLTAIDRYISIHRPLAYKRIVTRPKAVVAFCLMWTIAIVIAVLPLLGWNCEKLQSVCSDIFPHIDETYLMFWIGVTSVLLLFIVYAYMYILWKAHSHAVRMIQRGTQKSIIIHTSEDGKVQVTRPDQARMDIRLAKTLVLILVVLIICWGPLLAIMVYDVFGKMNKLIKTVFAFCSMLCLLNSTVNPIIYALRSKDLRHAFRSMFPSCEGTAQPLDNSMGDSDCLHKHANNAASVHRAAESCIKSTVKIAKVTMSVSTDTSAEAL
Assay: Human cannabinoid receptor bonding inhibition test ([3H]CP55940), CB1
Type: binding
Parameters: expressed in transfected cells; membrane fraction
reported metric: pKi
Keep in mind that pKi stands for -log10 of concentration in molar terms.

Examples from the recorded data:
CC(C)NC(=O)N1CCN(C(=O)C(C)(C)NC(=O)c2cc3c(n(CC4CCCCC4)c2=O)CCCCCC3)CC1    7.80
CNC(=O)CNC(=O)C(C)(C)NC(=O)c1cc2c(n(CC3CCCCC3)c1=O)CCCCCC2    7.18

Turning to the following compound.
Sure, the documented pKi for CC(C)CCn1c2c(cc(C(=O)NC(C(=O)O)c3cccs3)c1=O)CCCCCC2 (stereo not shown) is 7.30

----------
Measured IC50, listed per entry.
Target: UniProtKB P34972
Assay: cAMP formation inhibition experiment through a cannabinoid receptor (forskolin stimulation), CB2
Format: cell-based
Design: expressed in transfected cells; host or cells: CHO cells
Give just the numeric value; nM need not be written.

Example entries begin here.
CCCCn1c(CCC)c(CC)cc(C(=O)NC2(CC(=O)O)CCCC2)c1=O [Compound X-233]    15
CCCCn1c(CCC)c(CC)cc(C(=O)NC(CC)(CC)CC(=O)O)c1=O [Compound X-196]    45
O=C(O)C1=C(NC(=O)c2cc3c(n(CC4CCCCC4)c2=O)CCCCCC3)CCCC1 [Compound X-126]    35
CC(C)(NC(=O)c1cc2c(n(CC3CCCCC3)c1=O)CCCCCC2)C(=O)NNC(=O)c1cccnc1 [Compound I-556]    3.5

The reported IC50 of the compound O=C(NC1(C(=O)O)CCCCC1)c1cc2c(n(Cc3ccc(F)c(F)c3)c1=O)CCCCCC2 [XI-017] was 11

Per the record, O=C(O)CC(NC(=O)c1cc2c(n(CC3CCCCC3)c1=O)CCCCCC2)C(F)(F)F (stereo not shown) [II-076] has IC50 of 1.2

So, CC(C)(NC(=O)c1cc2c(n(CC3CCCCC3)c1=O)CCCCCC2)C(=O)N1CCC(C(=O)NNS(C)(=O)=O)CC1 [Compound I-606] ? Its IC50 was 8.7

IC50 for O=C(O)CC(NC(=O)c1cc2c(n(Cc3ccc(F)cc3)c1=O)CCCCCC2)C(F)(F)F (stereo not shown) [II-067] is 4.9

Recorded result, CCCCn1c2c(cc(C(=O)NC(CCC(=O)O)CC(C)C)c1=O)CCCCCC2 (stereo not shown) [Compound X-202] , IC50: 81

According to the records, this compound CCCCn1c2c(cc(C(=O)N[C@H](CC(=O)O)CC(C)C)c1=O)CCCCCC2 [Compound X-138] displays IC50 of 30

Value of measured IC50 for the entry CCCCn1c2c(cc(C(=O)NC3(C(=O)O)CCCCCCCCC3)c1=O)CCCCCC2 [Compound X-232] : 29

The recorded IC50 for CCCCn1c2c(cc(C(=O)NC3(CC(=O)O)CCCC3)c1=O)CCCCCC2 [Compound X-235] is 4.7

Documented IC50 of CCCCNC(=O)C1CCCN(C(=O)C(C)(C)NC(=O)c2cc3c(n(CC4CCCCC4)c2=O)CCCCCC3)C1 (stereo not shown) [Compound I-608] : 3.5

IC50 in this record for CCOC(=O)C1CCCCC1NC(=O)c1cc2c(n(CCCNC(C)=O)c1=O)CCCCCC2 (stereo not shown) [II-031] : 9.9

Note to self: IC50 recorded for CCc1c(C)cc(C(=O)NCC2(CC(=O)O)CCCCC2)c(=O)n1Cc1ccc(F)cc1 [Compound X-197] was 7.2

# IC50 (compound: COCCn1c2c(cc(C(=O)NC3(CC(=O)O)CCCC3)c1=O)CCCCCC2 [XI-035] ) is 47

----------
Target: CB1 receptor (Homo sapiens, UniProt P21554)
Experiment: Human cannabinoid receptor bonding inhibition test ([3H]CP55940), CB1
Assay type: binding
Design: expressed in transfected cells; membrane fraction
Conditions: [3H]CP55940 0.5 nM, membrane preparation of CHO cells expressing CB1; Ki calculated from IC50; read-out: Binding activity (nM) CB1
Label criterion met when Ki < 500 nM; otherwise criterion not met.

Would you please look over these solved cases?
CCc1c(C)cc(C(=O)NC(CC)(CC)CC(=O)O)c(=O)n1Cc1ccc(F)cc1 [Compound X-216]    criterion not met
CN(CCO)C(=O)C(C)(C)NC(=O)c1cc2c(n(CC3CCCCC3)c1=O)CCCCCC2 [Compound I-019]    criterion met
CCc1c(C)cc(C(=O)NC2(CC(=O)O)CCCC2)c(=O)n1Cc1ccc(F)cc1 [Compound X-234]    criterion met
CCCCn1c(CCC)c(CC)cc(C(=O)NC2(CC(=O)O)CCCC2)c1=O [Compound X-233]    criterion not met
O=C(NC1(C(=O)O)CCCCC1)c1cc2c(n(Cc3ccc(F)c(F)c3)c1=O)CCCCCC2 [XI-017]    criterion met

Q: Just wondering, is Ki of CCc1c(C)cc(C(=O)Nc2nc(CC(=O)O)cs2)c(=O)n1Cc1ccc(F)cc1 [Compound X-222] below 500 nM?
Ans: criterion not met

Q: Given CCc1c(C)cc(C(=O)NC2(C(=O)O)CCCCCCC2)c(=O)n1Cc1ccc(F)cc1 [Compound X-239] , is recorded Ki strictly lower than 500 nM?
Ans: criterion not met

Q: Is it true that Ki reported for O=C(NC(C(=O)O)C(F)(F)F)c1cc2c(n(CC3CCCCC3)c1=O)CCCCCC2 (stereo not drawn) [Compound X-229] is less than 500 nM?
Ans: criterion met

Q: Strictly below 500 nM in Ki? O=C(N[C@H](C(=O)O)c1ccccc1)c1cc2c(n(CC3CCCCC3)c1=O)CCCCCC2 [Compound I-402]
Ans: criterion met

----------
System: scratching action induced by Compound 48/80
Assay: Anti-pruritic activity test by application (Compound 48/80 scratching)
Type: in vivo, mouse (Crj:CD-1 (ICR))
Settings: Mus musculus, topical, read-out: Itching inhibition ratio % (Concentration %)
Measured inhibition in vivo at 3 % accompanies every entry in the list below.
Report the value in % with no unit label.

Observe how each entry below is paired with its result.
CC(C)(NC(=O)c1cc2c(n(CC3CCCCC3)c1=O)CCCCCC2)C(=O)NNC(=O)c1cccnc1 [Compound I-556]    76
O=C(O)CC1(NC(=O)c2cc3c(n(CC4CCCCC4)c2=O)CCCCCC3)CCCCC1 [II-073]    58
CC(C)(C)OC(=O)NC1CCN(C(=O)C(C)(C)NC(=O)c2cc3c(n(CC4CCCCC4)c2=O)CCCCCC3)CC1 [Compound I-570]    84
CC(C)(NC(=O)c1cc2c(n(CC3CCCCC3)c1=O)CCCCCC2)C(=O)N1CCC(NS(=O)(=O)C(C)(C)C)CC1 [Compound I-048]    58
CCCCNC(=O)C1CCCN(C(=O)C(C)(C)NC(=O)c2cc3c(n(CC4CCCCC4)c2=O)CCCCCC3)C1 (stereo not shown) [Compound I-608]    75
CCNC(=O)C1CCCN(C(=O)C(C)(C)NC(=O)c2cc3c(n(CC4CCCCC4)c2=O)CCCCCC3)C1 (stereo not shown) [Compound I-595]    108

Here is another compound to look at.
Recorded inhibition in vivo at 3 % (compound CC(C)CCn1c2c(cc(C(=O)N[C@@H](C(=O)O)c3ccccc3)c1=O)CCCCCC2 [Compound I-424] ): 62

----------
Each record here notes measured Ki.
Target: CB2 receptor (Homo sapiens, UniProt P34972)
Test: Human cannabinoid receptor bonding inhibition test ([3H]CP55940), CB2
Type: binding
Design: expressed in transfected cells; membrane fraction
Numeric answer only, unit nM assumed.

O=C(O)C1=C(NC(=O)c2cc3c(n(CC4CCCCC4)c2=O)CCCCCC3)CCCC1 [Compound X-126]    31
CCc1c(C)cc(C(=O)Nc2nc(CC(=O)O)cs2)c(=O)n1Cc1ccc(F)cc1 [Compound X-222]    43
CC(C)(NC(=O)c1cc2c(n(CC3CCCCC3)c1=O)CCCCCC2)C(=O)N1CCC(C(=O)NNS(C)(=O)=O)CC1 [Compound I-606]    4.4
CCc1c(C)cc(C(=O)NC2(CC(=O)O)CCCC2)c(=O)n1Cc1ccc(F)cc1 [Compound X-234]    4

Continue with the next compound.
For this compound ( CNC(=O)CNC(=O)C(C)(C)NC(=O)c1cc2c(n(CC3CCCCC3)c1=O)CCCCCC2 [Compound I-590] ), measured Ki is 16
